- assay_target: T1, Human receptor grade IGFBP-3 (insulin-like growth factor binding protein 3) (human, UniProt P17936 28-291)
- T1 construct: Bought recombinant protein, overlaid in solution on the VN-peptide array
- T1 sequence (P17936 28-291 limits assumed): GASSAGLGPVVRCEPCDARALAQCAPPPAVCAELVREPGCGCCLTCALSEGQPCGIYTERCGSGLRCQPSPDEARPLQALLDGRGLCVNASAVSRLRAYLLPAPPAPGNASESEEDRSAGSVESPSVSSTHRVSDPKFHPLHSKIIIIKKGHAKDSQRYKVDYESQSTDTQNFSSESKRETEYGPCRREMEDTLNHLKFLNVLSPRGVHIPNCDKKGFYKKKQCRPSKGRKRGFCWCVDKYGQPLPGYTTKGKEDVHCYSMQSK
- experimental_protocol: VN-peptide array, ligand overlay, immunoblot/ECL, TotalLab spot intensity
Where no end group is shown, it is not given here.
Consider the following binders; for each one, report its Intensity (against -ve control).

- KYYRVNLRTRRVDTVD (not fully specified (N-terminus); also: free end capped by acetylation, immobilised on cellulose membrane (SPOT synthesis)) [VN-peptide 8A (array grid J4)]: 5 fold over negative controls

Let's switch to this binder now.
Identify measured Intensity (against -ve control) corresponding to GIDSRPETLHPGRPQP (not fully specified (N-terminus); also: free end capped by acetylation, immobilised on cellulose membrane (SPOT synthesis)) [VN-peptide 2B (array grid C13)]
2 fold over negative controls
